# targetUnderTest: T1, rat neuropeptide FF receptor (NPFF2) (rat, UniProt Q9EQD2 1-417)
# T1 construct: Full-length cloned receptor; Also the native receptor in rat brain sections (autoradiography); also called rat NPFF2
# T1 sequence (Q9EQD2 whole entry): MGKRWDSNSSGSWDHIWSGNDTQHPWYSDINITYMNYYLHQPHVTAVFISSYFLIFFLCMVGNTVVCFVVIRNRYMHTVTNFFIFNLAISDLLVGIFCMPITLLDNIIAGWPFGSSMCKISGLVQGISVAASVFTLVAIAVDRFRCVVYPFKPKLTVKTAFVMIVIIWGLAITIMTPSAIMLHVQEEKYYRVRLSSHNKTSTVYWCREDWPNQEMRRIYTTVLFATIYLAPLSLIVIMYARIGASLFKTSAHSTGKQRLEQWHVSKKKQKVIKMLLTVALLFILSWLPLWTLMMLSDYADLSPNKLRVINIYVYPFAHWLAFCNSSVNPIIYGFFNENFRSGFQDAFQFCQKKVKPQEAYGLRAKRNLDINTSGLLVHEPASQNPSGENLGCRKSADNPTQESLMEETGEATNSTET
# experimentNotes: competition with [125I]D-Tyr-NPFF, cloned receptor (head: HEK-293; text: Cos-7)
Non-standard residues stand in square brackets, D forms with d. No end group written: not given here. NMeF = CN[C@@H](Cc1ccccc1)C(=O)O
Assign pKi to each entry below.
Give bare numbers.

Before answering, review these 5 worked examples.
[[record]]
binder = "FMRF-NH2 [FMRF amide]"
metricname = "pKi"
reportedvalue = 8

[[record]]
binder = "AGEGLSSPFWSLAAPQRF-NH2 (also called NPAF) [rat A-18-F-amide]"
metricname = "pKi"
reportedvalue = 8.2

[[record]]
binder = "[dY]L[NMeF]QPQRF-NH2 (N-terminus assumed; SMILES CC(C)C[C@H](NC(=O)[C@H](N)Cc1ccc(O)cc1)C(=O)N(C)[C@@H](Cc1ccccc1)C(=O)N[C@@H](CCC(N)=O)C(=O)N1CCC[C@H]1C(=O)N[C@@H](CCC(N)=O)C(=O)N[C@@H](CCCNC(=N)N)C(=O)N[C@@H](Cc1ccccc1)C(N)=O, also called D-Tyr-NPFF; (1DMe)Y8Fa) [(D-Tyr^1-(NMe)Phe^3)NPFF]"
metricname = "pKi"
reportedvalue = 8.7

[[record]]
binder = "FMRF (D-Met in place of L-Met, C-terminal amide, also called the D-Met analog) [D-Met-FMRF amide]"
metricname = "pKi"
reportedvalue = 6.2

[[record]]
binder = "PQRF-NH2 (C-terminal tetrapeptide of NPFF; also called PGRF-amide [sic]) [PQRF-amide]"
metricname = "pKi"
reportedvalue = 7.6


Read the next record carefully.
Request: // returns reported pKi for input APSEPHHPGDQATQDQLAQYYSDLYQYITFVTRPRF (not fully specified; ends and bridges not checked, also called fPP) [Frog pancreatic polypeptide (frog PP) (Rana Temporaria)]
Result: 7.3
